Sourced from PubChem BioAssay (NCI)

System: NCI-H23 lung
Experiment: NCI tumour cell line growth inhibition, 48 h
VALUE_KIND: TGI

Examples with their reported TGI follow.
COMPOUND: CS(=O)(=O)c1nc(-c2cc3c(c(S(C)(=O)=O)n2)CCC3)cc2c1CCCC2
TGI: > 100 µM
//
COMPOUND: CC1CN(S(=O)(=O)c2oc(-c3ccc(Cl)cc3)nc2C#N)CC(C)O1 (centres undefined)
TGI: 15.9 µM
//
COMPOUND: O=Nn1c2ccccc2c2cc([N+](=O)[O-])ccc21
TGI: 38.3 µM
//
COMPOUND: CN(C)c1ccc(/C=C2\N=C(c3ccccc3)N(c3cc(C(F)(F)F)ccc3Cl)C2=O)cc1
TGI: > 100 µM
//
COMPOUND: O=C(O)CC[P+](c1ccccc1)(c1ccccc1)c1ccccc1
TGI: > 100 µM

The compound identified as CCC(COC(=O)CC[C@@H](NC(=O)C(C)NC(=O)C(C)OC1C(O)C(CO)OC(OCc2ccccc2)C1NC(C)=O)C(N)=O)NC1c2ccccc2Nc2cccc([N+](=O)[O-])c21 (some centres undefined) registered its TGI at > 100 µM

The compound identified as CC(C)c1nc(N(C)S(C)(=O)=O)nc(-c2ccc(F)cc2)c1/C=C/[C@@H](O)C[C@@H](O)CC(=O)O registered its TGI at > 100 µM

The compound identified as COc1ccc2c(c1)CC[C@@H]1C2CC[C@](C)(C#N)C1CC#N (some centres undefined) registered its TGI at > 100 µM

The compound identified as Cc1cc(C)nc(/C(=N\NC(N)=O)C(=O)Nc2nc3ccc(C)cc3s2)c1 registered its TGI at > 100 µM

----------
System: NCI-H23 lung
Test: NCI tumour cell line growth inhibition, 48 h
VALUE_KIND: TGI

Examples with their reported TGI follow.
COMPOUND: CCOC(=O)CCC1(C(=O)OCC)CCCC1=O (stereo not given)
TGI: > 100 µM
//
COMPOUND: Cc1nc2n(c1/C=C1/C(=O)Nc3ccccc31)CCS2
TGI: > 100 µM
//
COMPOUND: C=C1[C@@](C)([C@@H]2CCCS2)[C@H]2C(C)=C[C@]1(C)n1c(=O)n(-c3ccccc3)c(=O)n12
TGI: > 100 µM
//
COMPOUND: Cc1c2c(cc3c1C(=O)C(=O)C1=C3OC[C@@H]1C)C(C)(C)CCC2
TGI: 28.4 µM

Now, please, on to the next compound.
The compound identified as CC(=O)OC12c3ccccc3C(c3ccccc31)C1C(=O)N(c3ccccn3)C(=O)C12 (stereo not given) registered its TGI at > 100 µM

----------
System: K-562 leukemia
Assay: NCI tumour cell line growth inhibition, 48 h
VALUE_KIND: TGI

The measured TGI that CC(=O)NC1=C(NCCCl)C(=O)c2ccccc2C1=O showed for K-562 leukemia is > 100 µM

The measured TGI that Cc1nc2ccc(Br)cc2c(=O)n1-c1ccc(NC2OCC(O)C(O)C2O)cc1 (configuration not stated) showed for K-562 leukemia is > 100 µM

The measured TGI that CCOc1ccc(/C(C=O)=C(\Cl)c2ccc(OC)cc2)cc1 showed for K-562 leukemia is > 100 µM

The measured TGI that [O-][n+]1c(CN2CCCCC2)nc2cccc3c2c1-c1ccccc1-3 showed for K-562 leukemia is > 100 µM

The measured TGI that COC(=O)CCC12CCC(=O)C1[C@@H](C(=O)OC)C[C@H]2C(=O)OC (some centres not stated) showed for K-562 leukemia is > 100 µM

The measured TGI that C[Si](C)(c1ccc(C(=O)O)cc1)c1ccc(C(=O)O)cc1 showed for K-562 leukemia is > 100 µM

The measured TGI that Cc1nc2n(c1/C=C1/C(=O)Nc3ccccc31)CCS2 showed for K-562 leukemia is > 100 µM

The measured TGI that C=C(C)C1CC/C(C)=C/CC[C@]2(C)O[C@@H]2CCC2=CC1OC2=O (some centres not stated) showed for K-562 leukemia is 27.7 µM

The measured TGI that CN(Cc1ccc(C(F)(F)F)cc1)CC(O)C(=O)Nc1ccc(Cl)cc1 (configuration not stated) showed for K-562 leukemia is 2.78 µM
